Biological target: mono-acyl glycerol lipase (MAGL) (Homo sapiens, UniProt Q99685)
Sequence (Q99685 whole entry): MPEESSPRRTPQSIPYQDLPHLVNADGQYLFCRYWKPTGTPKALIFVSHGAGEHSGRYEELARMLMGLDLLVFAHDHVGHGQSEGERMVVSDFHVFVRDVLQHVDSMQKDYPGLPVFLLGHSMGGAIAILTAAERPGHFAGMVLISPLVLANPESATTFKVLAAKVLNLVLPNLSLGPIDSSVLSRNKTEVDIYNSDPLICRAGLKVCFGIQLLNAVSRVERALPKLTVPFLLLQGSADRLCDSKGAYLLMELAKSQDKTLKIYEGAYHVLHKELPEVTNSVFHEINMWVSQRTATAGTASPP
Assay: In vitro inhibition of mono-acyl glycerol lipase (Monoacylglycerol Lipase Inhibitor Screening Assay Kit, Cayman Chemical; colorimetric)
Details: human recombinant enzyme; 5 min pre-incubation at room temperature (20 °C); substrate 4-nitrophenylacetate (236 µM), 30 min; absorbance at 412 nm; read-out: IC50 against MAGL
Answer each item with its documented IC50.
Number only, in µM; omit the unit.

Task item: Could you share which IC50 value was measured for CCCCCC1=CC(=O)C2=C(OC(C)(CCC=C(C)C)C=C2)C1=O (stereo not drawn) [(A)] ?
Reply: 4.44

Task item: Request: CCCC1=CC(=O)C2=C(OC(C)(CCC=C(C)C)C=C2)C1=O (stereo not drawn) [(C)]
Reply: 6.64

Task item: Request: CCCCCC1=CC(=O)C2=C(OC(C)(C)C=C2)C1=O [(B), 2,2-dimethyl-7-pentyl-chromene-5,8-dione]
Reply: 4.5

Where do the numbers come from? From patent EP3666765A1.
